Data credit: PubChem BioAssay (NCI)

tested on: SF-539 CNS; test: NCI tumour cell line growth inhibition, 48 h
Listing of recorded TGI by entry.
I only need the number, in µM, no unit after it.

[[record]]
molecule = "CN(C)CC1CCC/C(=C\\c2ccc(Cl)c(Cl)c2)C1=O (stereo not given)"
measured_parameter = "TGI"
measured_value = 12.5

[[record]]
molecule = "[O-]c1ccccc1C=NCCN=Cc1ccccc1[O-].[O]=[U+2]=[O]"
measured_parameter = "TGI"
measured_value = 37.6

[[record]]
molecule = "CCCCCCCCCCCC1=NC(C)(C)CN1C(C)C"
measured_parameter = "TGI"
measured_value = 4.41


For the molecule Clc1cccc(-c2cc(-c3ccc4c(c3)OCCO4)[nH]n2)c1 , give its measured TGI value.
36.1
